Please respond with reported pIC50 for every item in the list.
pIC50: −log10 of the molar value.

Test item CCCCCCc1cn(CCCOc2cc3ncnc(Nc4cc(C(F)(F)F)ccc4Cl)c3cc2OC)nn1 [V1302] ; EGFR kinase (Homo sapiens, UniProt P00533); reported pIC50 was < 5.00

Test item C=CCOc1cc2ncnc(Nc3cc(C(F)(F)F)ccc3Cl)c2cc1OC [V1304] ; EGFR kinase (Homo sapiens, UniProt P00533); reported pIC50 was < 5.00

Test item COc1cc2c(Nc3cc(C(F)(F)F)cc(C(F)(F)F)c3)ncnc2cc1OCCCN1CCCCC1 [V1807] ; EGFR kinase (Homo sapiens, UniProt P00533); reported pIC50 was < 5.00

The reported measurements were obtained from paper PMC3504066.
